System: 885724-159-R-J1-PDC complex spheroid viability
Assay: Anticancer human tumor 885724-159-R-J1-PDC patient-derived pancreatic adenocarcinoma cell line growth inhibition [GQUAD]
Settings: second compound 1 µM; first compound 0.316 µM; stronger effect = lower value
viability, T/C reference

# count of solved cases: 3
1. CC(C)(O)C1CCC(Nc2ccc3ncc(-c4cccc(C(F)(F)F)c4)n3n2)CC1 (configuration not stated) + Cc1[nH]c2ccc(F)cc2c1-c1nc2c3cccnc3c3ncccc3c2[nH]1	57.2%
2. COc1cccc2c1C(=O)c1c(O)c3c(c(O)c1C2=O)CC(O)(C(=O)CO)CC3OC1CC(N)C(O)C(C)O1 (configuration not stated) + CN(C)c1ccc(Nc2c3ccc(NC(=O)CCN4CCCC4)cc3nc3cc(NC(=O)CCN4CCCC4)ccc23)cc1	68.6%
3. CC(C)(O)C1CCC(Nc2ccc3ncc(-c4cccc(C(F)(F)F)c4)n3n2)CC1 (configuration not stated) + Cc1cnc(CNC(=O)c2c(=O)c3ccc(N4CCCN(C)CC4)nc3n3c2sc2ccccc23)cn1	77.2%

Record COc1ccc([C@@H](O)c2cc(-c3ncnc4cc(N5CCOCC5)ccc34)c(F)cc2Cl)nn1 + CN(C)c1ccc(Nc2c3ccc(NC(=O)CCN4CCCC4)cc3nc3cc(NC(=O)CCN4CCCC4)ccc23)cc1 , field viability, T/C: 82.7%

Record C#Cc1c(F)ccc2cc(O)cc(-c3ncc4c(N5CC6CCC(C5)N6)nc(OCC56CCCN5CC(F)C6)nc4c3F)c12 (configuration not stated) + Cc1[nH]c2ccc(F)cc2c1-c1nc2c3cccnc3c3ncccc3c2[nH]1 , field viability, T/C: 75%

Record CC1COCCN1c1cc(C2(S(C)(=N)=O)CC2)nc(-c2ccnc3[nH]ccc23)n1 (configuration not stated) + Cc1[nH]c2ccc(F)cc2c1-c1nc2c3cccnc3c3ncccc3c2[nH]1 , field viability, T/C: 78.8%

Record COc1ccc([C@@H](O)c2cc(-c3ncnc4cc(N5CCOCC5)ccc34)c(F)cc2Cl)nn1 + Cc1[nH]c2ccc(F)cc2c1-c1nc2c3cccnc3c3ncccc3c2[nH]1 , field viability, T/C: 82.8%

Record C#Cc1c(F)ccc2cc(O)cc(-c3ncc4c(N5CC6CCC(C5)N6)nc(OCC56CCCN5CC(F)C6)nc4c3F)c12 (configuration not stated) + CN(C)c1ccc(Nc2c3ccc(NC(=O)CCN4CCCC4)cc3nc3cc(NC(=O)CCN4CCCC4)ccc23)cc1 , field viability, T/C: 87.8%

Record O=C(c1cc(Cc2n[nH]c(=O)c3ccccc23)ccc1F)N1CCN(C(=O)C2CC2)CC1 + Cc1[nH]c2ccc(F)cc2c1-c1nc2c3cccnc3c3ncccc3c2[nH]1 , field viability, T/C: 77.2%

###

System: 885724-159-R-J1-PDC complex spheroid viability
Test: Anticancer human tumor 885724-159-R-J1-PDC cell line growth inhibition [GQUAD];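 further: spheroids exposed to agents for seven days before readout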;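 on viability, T/C: percent of vehicle control viability where 100% = DMSO wells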
Settings: second compound 0.0316 µM; first compound 3.16 µM; stronger effect = lower value
Excerpt: DNA G-quadruplex Stabilizer Agents in Combinations in Complex Spheroids A high-throughput screen of multi-cell type tumor spheroids was designed to identify active combinations of DNA G-quadruplex stabilizer agents and targeted small molecules. […] Compounds. […] If the clinical Cmax for an agent had not been determined, the highest concentration tested was 10 microM. […]
We label by threshold. Values of viability, T/C strictly beneath 80% are criterion met. Values of 80% and up are criterion not met.

Consider the worked cases shown below.
1. C=CCn1c(=O)c2cnc(Nc3ccc(N4CCN(C)CC4)cc3)nc2n1-c1cccc(C(C)(C)O)n1 + CN(C)c1ccc(Nc2c3ccc(NC(=O)CCN4CCCC4)cc3nc3cc(NC(=O)CCN4CCCC4)ccc23)cc1	criterion met
2. Nc1ccn(C2OC(CO)C(O)C2(F)F)c(=O)n1 (centres undefined) + Cc1[nH]c2ccc(F)cc2c1-c1nc2c3cccnc3c3ncccc3c2[nH]1	criterion met
3. O=C(NO)c1cnc(N2CCN(S(=O)(=O)c3ccc4ccccc4c3)CC2)nc1 + Cc1cnc(CNC(=O)c2c(=O)c3ccc(N4CCCN(C)CC4)nc3n3c2sc2ccccc23)cn1	criterion met
4. O=C(NO)c1cnc(N2CCN(S(=O)(=O)c3ccc4ccccc4c3)CC2)nc1 + CN(C)c1ccc(Nc2c3ccc(NC(=O)CCN4CCCC4)cc3nc3cc(NC(=O)CCN4CCCC4)ccc23)cc1	criterion met
5. Cc1cccc(N(C)C(=O)C2C(O)CCN2c2nc(C)cc(C(F)(F)F)c2C#N)c1 (centres undefined) + CN(C)c1ccc(Nc2c3ccc(NC(=O)CCN4CCCC4)cc3nc3cc(NC(=O)CCN4CCCC4)ccc23)cc1	criterion not met

*Q* Determine whether this molecule shows viability, T/C lower than 80% (ties excluded): COc1cc(C2c3cc4c(cc3C(OC3OC5COC(C)OC5C(O)C3O)C3COC(=O)C23)OCO4)cc(OC)c1O (centres undefined) + Cc1cnc(CNC(=O)c2c(=O)c3ccc(N4CCCN(C)CC4)nc3n3c2sc2ccccc23)cn1
*A* criterion not met

###

Tested on: 885724-159-R-J1-PDC complex spheroid viability
Assay: Anticancer human tumor 885724-159-R-J1-PDC cell line growth inhibition [GQUAD];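 further: spheroids exposed to agents for seven days before readout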
Conditions: curve of first compound; second compound 1 µM
reported.metric: IC50

1) O=C(c1cc(Cc2n[nH]c(=O)c3ccccc23)ccc1F)N1CCN(C(=O)C2CC2)CC1 + Cc1[nH]c2ccc(F)cc2c1-c1nc2c3cccnc3c3ncccc3c2[nH]1	> 10 µM
2) CC1COCCN1c1cc(C2(S(C)(=N)=O)CC2)nc(-c2ccnc3[nH]ccc23)n1 (stereo not given) + Cc1cnc(CNC(=O)c2c(=O)c3ccc(N4CCCN(C)CC4)nc3n3c2sc2ccccc23)cn1	> 10 µM

The compound O=c1[nH]cc(F)c(=O)[nH]1 + CN(C)c1ccc(Nc2c3ccc(NC(=O)CCN4CCCC4)cc3nc3cc(NC(=O)CCN4CCCC4)ccc23)cc1 on 885724-159-R-J1-PDC complex spheroid viability: IC50 was > 10 µM

The compound CC(C)n1c(=O)n(C)c2cnc3cc(F)c(-c4ccc(OCCCN5CCCCC5)nc4)cc3c21 + CN(C)c1ccc(Nc2c3ccc(NC(=O)CCN4CCCC4)cc3nc3cc(NC(=O)CCN4CCCC4)ccc23)cc1 on 885724-159-R-J1-PDC complex spheroid viability: IC50 was > 10 µM

The compound Cn1ncnc1[C@H]1c2n[nH]c(=O)c3cc(F)cc(c23)N[C@@H]1c1ccc(F)cc1 + Cc1cnc(CNC(=O)c2c(=O)c3ccc(N4CCCN(C)CC4)nc3n3c2sc2ccccc23)cn1 on 885724-159-R-J1-PDC complex spheroid viability: IC50 was > 0.316 µM

###

System: 885724-159-R-J1-PDC complex spheroid viability
Test: Anticancer human tumor 885724-159-R-J1-PDC cell line growth inhibition [GQUAD]; active = viability on the fitted dose curve at most 10% of control; inactive = the rest;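 further: spheroids exposed to agents for seven days before readout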
Details: second compound 3.16 µM; first compound 3.16 µM
The reply should be one of these categories: active, inactive

Consider the worked cases shown below.
1. COc1ccc([C@@H](O)c2cc(-c3ncnc4cc(N5CCOCC5)ccc34)c(F)cc2Cl)nn1 + Cc1[nH]c2ccc(F)cc2c1-c1nc2c3cccnc3c3ncccc3c2[nH]1	inactive
2. Cc1cccc(N(C)C(=O)C2C(O)CCN2c2nc(C)cc(C(F)(F)F)c2C#N)c1 (stereo not drawn) + Cc1cnc(CNC(=O)c2c(=O)c3ccc(N4CCCN(C)CC4)nc3n3c2sc2ccccc23)cn1	inactive
3. Nc1ccn(C2OC(CO)C(O)C2(F)F)c(=O)n1 (stereo not drawn) + Cc1[nH]c2ccc(F)cc2c1-c1nc2c3cccnc3c3ncccc3c2[nH]1	inactive
4. CC1COCCN1c1cc(C2(O)CC3CCC(C2)O3)c2cnn(-c3ccn[nH]3)c2n1 (stereo not drawn) + Cc1cnc(CNC(=O)c2c(=O)c3ccc(N4CCCN(C)CC4)nc3n3c2sc2ccccc23)cn1	inactive
5. O=C(NO)c1cnc(N2CCN(S(=O)(=O)c3ccc4ccccc4c3)CC2)nc1 + Cc1[nH]c2ccc(F)cc2c1-c1nc2c3cccnc3c3ncccc3c2[nH]1	active
6. COc1ncnc(C2CC2)c1-c1ncc2cnn(Cc3ccc(-c4nc(C(F)(F)F)cn4C(C)C)cc3)c2n1 + Cc1cnc(CNC(=O)c2c(=O)c3ccc(N4CCCN(C)CC4)nc3n3c2sc2ccccc23)cn1	inactive
7. C#Cc1c(F)ccc2cc(O)cc(-c3ncc4c(N5CC6CCC(C5)N6)nc(OCC56CCCN5CC(F)C6)nc4c3F)c12 (stereo not drawn) + CN(C)c1ccc(Nc2c3ccc(NC(=O)CCN4CCCC4)cc3nc3cc(NC(=O)CCN4CCCC4)ccc23)cc1	inactive
8. CC(C)n1c(=O)n(C)c2cnc3cc(F)c(-c4ccc(OCCCN5CCCCC5)nc4)cc3c21 + Cc1[nH]c2ccc(F)cc2c1-c1nc2c3cccnc3c3ncccc3c2[nH]1	inactive
9. C=CC(=O)N1CCN(c2nc(=O)n(-c3c(C)ccnc3C(C)C)c3nc(-c4c(O)cccc4F)c(F)cc23)C(C)C1 (stereo not drawn) + CN(C)c1ccc(Nc2c3ccc(NC(=O)CCN4CCCC4)cc3nc3cc(NC(=O)CCN4CCCC4)ccc23)cc1	inactive
10. O=c1[nH]cc(F)c(=O)[nH]1 + Cc1[nH]c2ccc(F)cc2c1-c1nc2c3cccnc3c3ncccc3c2[nH]1	inactive

*Q* Please indicate how the test categorized CC1COCCN1c1cc(C2(S(C)(=N)=O)CC2)nc(-c2ccnc3[nH]ccc23)n1 (stereo not drawn) + CN(C)c1ccc(Nc2c3ccc(NC(=O)CCN4CCCC4)cc3nc3cc(NC(=O)CCN4CCCC4)ccc23)cc1 .
*A* inactive

*Q* Please indicate how the test categorized Cc1cccc(N(C)C(=O)C2C(O)CCN2c2nc(C)cc(C(F)(F)F)c2C#N)c1 (stereo not drawn) + Cc1[nH]c2ccc(F)cc2c1-c1nc2c3cccnc3c3ncccc3c2[nH]1 .
*A* inactive

*Q* Please indicate how the test categorized O=C(NO)c1cnc(N2CCN(S(=O)(=O)c3ccc4ccccc4c3)CC2)nc1 + CN(C)c1ccc(Nc2c3ccc(NC(=O)CCN4CCCC4)cc3nc3cc(NC(=O)CCN4CCCC4)ccc23)cc1 .
*A* active

*Q* Please indicate how the test categorized O=c1[nH]cc(F)c(=O)[nH]1 + CN(C)c1ccc(Nc2c3ccc(NC(=O)CCN4CCCC4)cc3nc3cc(NC(=O)CCN4CCCC4)ccc23)cc1 .
*A* inactive

*Q* Please indicate how the test categorized CC1COCCN1c1cc(C2(O)CC3CCC(C2)O3)c2cnn(-c3ccn[nH]3)c2n1 (stereo not drawn) + Cc1[nH]c2ccc(F)cc2c1-c1nc2c3cccnc3c3ncccc3c2[nH]1 .
*A* inactive

*Q* Please indicate how the test categorized Cc1cccc(N(C)C(=O)C2C(O)CCN2c2nc(C)cc(C(F)(F)F)c2C#N)c1 (stereo not drawn) + CN(C)c1ccc(Nc2c3ccc(NC(=O)CCN4CCCC4)cc3nc3cc(NC(=O)CCN4CCCC4)ccc23)cc1 .
*A* inactive

*Q* Please indicate how the test categorized CC1COCCN1c1cc(C2(S(C)(=N)=O)CC2)nc(-c2ccnc3[nH]ccc23)n1 (stereo not drawn) + Cc1cnc(CNC(=O)c2c(=O)c3ccc(N4CCCN(C)CC4)nc3n3c2sc2ccccc23)cn1 .
*A* inactive

*Q* Please indicate how the test categorized Nc1ccn(C2OC(CO)C(O)C2(F)F)c(=O)n1 (stereo not drawn) + Cc1cnc(CNC(=O)c2c(=O)c3ccc(N4CCCN(C)CC4)nc3n3c2sc2ccccc23)cn1 .
*A* inactive

Where these numbers come from: PubChem BioAssay AID2060502
